Assay summary: Antiviral activity against Cowpox virus (Brighton Red) infected in human HFF cells after 3 days by plaque reduction assay
Format: functional, cell-based
Condition context: 72 h
Kindly supply the reported pEC50 values for the records listed here.
Conceptually, pEC50 converts a concentration in mol/L into minus its log10.

Reported pEC50 for CCCCCCCCCCCCCCCCOCCCOP(=O)(O)CO[C@H](CO)Cn1ccc(N)nc1=O was 6.70

Reported pEC50 for CC(C)CCCCCCCCCCCCCCOCCCOP(=O)(O)CO[C@H](CO)Cn1cnc2c(N)ncnc21 was 7.40

Reported pEC50 for CCCCCCCCCCCCCCCCCCOC[C@@H](COP(=O)(O)CO[C@H](CO)Cn1ccc(N)nc1=O)OCc1ccccc1 was 6.52

Reported pEC50 for CC(C)CCCCCCCCCCCOCCCOP(=O)(O)CO[C@H](CO)Cn1ccc(N)nc1=O was 6.10

Reported pEC50 for CC(C)CCCCCCCCCCCCCCOCCCOP(=O)(O)CO[C@H](CO)Cn1ccc(N)nc1=O was 7.00

Reported pEC50 for C=CCCCCCCCCCCCCCCOCCOP(=O)(O)CO[C@H](CO)Cn1cnc2c(N)ncnc21 was 7.70

Reported pEC50 for CC(C)CCCCCCCCCCCCOCCCOP(=O)(O)CO[C@H](CO)Cn1ccc(N)nc1=O was 6.52

Reported pEC50 for CCCCCCCCCCCCCCCCOCCCOP(=O)(O)CO[C@H](CO)Cn1cnc2c(N)ncnc21 was 7.70

Reported pEC50 for CC(C)CCCCCCCCCCCCCCOCCOP(=O)(O)CO[C@H](CO)Cn1cnc2c(N)ncnc21 was 8.00

Reported pEC50 for Nc1ccn(C[C@@H](CO)OCP(=O)(O)OCCCOCCCCCCCCCCCCCCC2CC2)c(=O)n1 was 6.30

Reported pEC50 for CCCCCCCCCCCCCCCCOCCOP(=O)(O)CO[C@H](CO)Cn1cnc2c(N)ncnc21 was 7.05

====

Assay summary: Cytotoxicity against african green monkey BSC1 cells after 2 to 4 hrs by MTS assay
Type: cell-based, BSC-1
Condition context: chlorocebus aethiops, BSC1 cells
Test readout: CC50
Your answer should be a number followed by the unit of measure.

Reported CC50 for CCCCCCCCCCCCCCCCCCOC[C@@H](COP(=O)(O)CO[C@H](CO)Cn1ccc(N)nc1=O)OCc1ccccc1 was 35 µM

====

Test system: HFF
Assay summary: Cytotoxicity against human HFF cells assessed as reduction in cell viability after 7 days by neutral red uptake assay
Type: cell-based
Condition context: 168 h
Test readout: log10(CC50) (log10 of the value in µM)
Values are log10 of CC50 in µM.

Reported log10(CC50) for Nc1ccn(C[C@@H](CO)OCP(=O)(O)OCCCOCCCCCCCCCCCCCCC2CC2)c(=O)n1 was 1.75

Reported log10(CC50) for CCCCCCCCCCCCCCCCOCCOP(=O)(O)CO[C@H](CO)Cn1cnc2c(N)ncnc21 was 1.15

Reported log10(CC50) for CCCCCCCCCCCCCCCCOCCCOP(=O)(O)CO[C@H](CO)Cn1cnc2c(N)ncnc21 was 0.45

Reported log10(CC50) for CCCCCCCCCCCCCCCCCCOC[C@@H](COP(=O)(O)CO[C@H](CO)Cn1ccc(N)nc1=O)OCc1ccccc1 was 1.67

Reported log10(CC50) for CC(C)CCCCCCCCCCCCCCOCCCOP(=O)(O)CO[C@H](CO)Cn1ccc(N)nc1=O was 1.18

Reported log10(CC50) for CC(C)CCCCCCCCCCCCOCCCOP(=O)(O)CO[C@H](CO)Cn1ccc(N)nc1=O was 1.57

Reported log10(CC50) for CC(C)CCCCCCCCCCCOCCCOP(=O)(O)CO[C@H](CO)Cn1ccc(N)nc1=O was 1.64

Reported log10(CC50) for C=CCCCCCCCCCCCCCCOCCOP(=O)(O)CO[C@H](CO)Cn1cnc2c(N)ncnc21 was 0.23

Reported log10(CC50) for CCCCCCCCCCCCCCCCOCCCOP(=O)(O)CO[C@H](CO)Cn1ccc(N)nc1=O [BRINCIDOFOVIR] was 1.40

Reported log10(CC50) for CC(C)CCCCCCCCCCCCCCOCCOP(=O)(O)CO[C@H](CO)Cn1cnc2c(N)ncnc21 was 0.40

Reported log10(CC50) for CC(C)CCCCCCCCCCCCCCOCCCOP(=O)(O)CO[C@H](CO)Cn1cnc2c(N)ncnc21 was 1.06
